# Test system: SK-MEL-2 melanoma
# PROCEDURE DETAILS: NCI tumour cell line growth inhibition, 48 h
Item-by-item account of TGI
Kindly provide the numeric value in µM only, without the unit symbol.

- CN(C)CCNC1=CC(=O)c2c(O)ccc(O)c2C1=O: 25.3
- O=C(N/C(=C\c1ccc([N+](=O)[O-])cc1)c1nc2ccc(Cl)cc2[nH]1)c1ccccc1: 48.1
- C=Cc1cc2c(cc1O)CC[C@@H]1[C@@H]2CC[C@]2(C)[C@@H](O)CC[C@@H]12: 21.1

# evaluate next
Fill in: TGI of `Clc1ccc2c(NCCNc3ccnc4cc(Cl)ccc34)ccnc2c1` is ___
34.4
